- Test system: HIV-1 (NL4-3 strain)
- Protocol description: Assay for inhibition of HIV replication (MT4-gag-GFP reporter cell line, kinetic assay)
- Assay type: cell-based
- Experimental setup: Table A; infected MT4-GFP cells, RPMI + 0% normal human serum; IP from 4-parameter dose response curve; read-out: Wild Type Cell Assay IP (0% NHS)
Parameter: pIC50
One number for each entry, as −log10 of the molar value.

GET /values?readout=pIC50&system=HIV-1 (NL4-3 strain)&item= CCN1C(=O)c2c(O)c(=O)c(C(=O)NCc3ccc(F)cc3F)cn2C2COC[C@@H]21 (single isomer, unassigned) 8.22

----------
I'd appreciate it if you could supply IC50 values for the items below.
- Test system: HIV-1 (NL4-3 strain)
- Protocol description: Assay for inhibition of HIV replication (MT4-gag-GFP reporter cell line, kinetic assay)
- Assay type: cell-based
- Experimental setup: Human immunodeficiency virus 1, NL43, Table A; infected MT4-GFP cells, RPMI + 0% normal human serum; IP from 4-parameter dose response curve; read-out: Wild Type Cell Assay IP (0% NHS)
Give bare numbers, in nM.

Example compounds with recorded IC50:
{"Compound": "CCCN1C(=O)c2c(O)c(=O)c(-c3nnc(Cc4ccc(F)cc4)s3)cn2C2COC[C@@H]21 (mixture of isomers)", "Parameter": "IC50", "Observed measurement": 10}
{"Compound": "CC(C)N1C(=O)c2c(O)c(=O)c(C(=O)NCc3ccc(F)cc3F)cn2C2COC[C@@H]21 (mixture of isomers)", "Parameter": "IC50", "Observed measurement": 3}

Hey, quick one: what's IC50 for each of these?
1. CCN1C(=O)c2c(O)c(=O)c(-c3nnc(Cc4ccc(F)cc4F)s3)cn2C2COC[C@@H]21 (single isomer, unassigned)
2. CCN1C(=O)c2c(O)c(=O)c(-c3cnn(Cc4ccc(F)cc4F)c3)cn2[C@@H]2COC[C@@H]21 (relative stereo)

9
51
